Catalogue of molecules with associated IC50
System Name: DCAF15 (DDA1-DDB1ΔB-DCAF15Δpro) (Homo sapiens, UniProt Q66K64, DEL276-383)
Construct: made in house; host or cells: Sf9 (Bac-to-Bac baculovirus)
Assay Text: DCAF15 displacement assay (displacement FRET, probe PT7795)
Format: binding
Respond numerically; units are nM and should not be typed.

{"columns": ["Molecule", "Unit Info", "Obs Value"],
 "data": [
  ["O=S1(=O)Nc2c(cc(Cl)c3c(Cl)c[nH]c23)CN1CCN1CCOCC1", "nM", 952]
]}

Item O=S1(=O)Nc2c(cc(Cl)c3c(Cl)c[nH]c23)CN1CC1CCCNC1 (centres unmarked) was tested on DCAF15 (DDA1-DDB1ΔB-DCAF15Δpro) (Homo sapiens, UniProt Q66K64, DEL276-383); the reported IC50 is 274

----------
System Name: DCAF15 (DDA1-DDB1ΔB-DCAF15Δpro) (Homo sapiens, UniProt Q66K64, DEL276-383)
Construct: made in house; host or cells: Sf9 (Bac-to-Bac baculovirus)
Assay Text: DCAF15 displacement assay (displacement FRET, probe PT7795)
Format: binding
Assay Context: displacement of PT7795 (300 nM), compound 0.01 to 100 μM, 18 hours incubation; read-out: DCAF15 displacement IC50
Catalogue of compounds with associated log10(IC50)
Please note: log10 values; quantity IC50; unit nM.

Here's what some known entries look like.
{"columns": ["Compound", "log10(IC50)"],
 "data": [
  ["COCC[C@@H]1Cc2cc(Cl)c3c(Cl)c[nH]c3c2NS1(=O)=O (single isomer, unassigned)", 3.41],
  ["O=S1(=O)Nc2c(cc(Cl)c3c(Cl)c[nH]c23)CN1Cc1ccccc1", 3.72],
  ["COCCN1Cc2cc(Cl)c3c(C#N)c[nH]c3c2NS1(=O)=O", 3.52],
  ["O=S1(=O)Nc2c(cc(Cl)c3c(Cl)c[nH]c23)CN1CC1CCCO1 (stereo not shown)", 2.76],
  ["O=S1(=O)Nc2c(cc(Cl)c3c(Cl)c[nH]c23)CN1CC1CCCCO1 (stereo not shown)", 2.33],
  ["O=S1(=O)Nc2c(cc(Cl)c3c(Cl)c[nH]c23)CN1Cc1ccnnc1", 2.66],
  ["Cc1nnc(CN2Cc3cc(Cl)c4c(Cl)c[nH]c4c3NS2(=O)=O)o1", 2.98],
  ["C=CCN1Cc2cc(Cl)c3c(Cl)c[nH]c3c2NS1(=O)=O", 2.89],
  ["O=S1(=O)Nc2c(cc(Cl)c3c(Cl)c[nH]c23)CN1Cc1cccnc1Cl", 2.81],
  ["COCCN1Cc2cc(F)c3c(C#N)c[nH]c3c2NS1(=O)=O", 4.49]
]}

Field log10(IC50) (entry `N#Cc1c[nH]c2c3c(cc(Cl)c12)CNS(=O)(=O)N3` ) reads 4.17

Field log10(IC50) (entry `CC(=O)NCCN1Cc2cc(Cl)c3c(Cl)c[nH]c3c2NS1(=O)=O` ) reads 3.19

----------
System Name: DCAF15 RBM39 ternary complex (Homo sapiens, UniProt Q14498+Q66K64, DEL276-383)
Construct: Amino acids 150 to 331 of RBM39 were cloned into pGEX4T3; GST (from the pGEX4T3 vector, own knowledge) followed by a TEV cleavage site (N); made in house; host or cells: Sf9 baculovirus (DDB1ΔB/DCAF15); E. coli (RBM39 R1R2)
Assay Text: DCAF15 RBM39 complex formation assay (FRET)
Type: biochemical
Assay Context: FRET ratio, 20 nM DDB1DB/DCAF15, 50 nM RBM39 R1R2, overnight at 4° C.; read-out: DCAF15 RBM39 ternary complex EC50
Measured Parameter: EC50
Show the value, then the unit it is measured in.

{"columns": ["Compound", "System Name", "EC50"],
 "data": [
  ["COCCN1Cc2cc(Cl)c3cc[nH]c3c2NS1(=O)=O", "DCAF15 RBM39 ternary complex (Homo sapiens, UniProt Q14498+Q66K64, DEL276-383)", "65.8 nM"],
  ["N#Cc1c[nH]c2c3c(cc(Cl)c12)CNS(=O)(=O)N3", "DCAF15 RBM39 ternary complex (Homo sapiens, UniProt Q14498+Q66K64, DEL276-383)", "46.2 nM"],
  ["O=S1(=O)Nc2c(cc(Cl)c3c(Cl)c[nH]c23)CN1CC1CC(O)C1 (stereo not drawn)", "DCAF15 RBM39 ternary complex (Homo sapiens, UniProt Q14498+Q66K64, DEL276-383)", "1.6 nM"],
  ["COCCN1Cc2cc(C)c3c(Cl)c[nH]c3c2NS1(=O)=O", "DCAF15 RBM39 ternary complex (Homo sapiens, UniProt Q14498+Q66K64, DEL276-383)", "1.8 nM"],
  ["O=S1(=O)Nc2c(ccc3c(Cl)c[nH]c23)CN1C1CCCOC1 (stereo not drawn)", "DCAF15 RBM39 ternary complex (Homo sapiens, UniProt Q14498+Q66K64, DEL276-383)", "18.2 nM"]
]}

Field EC50 (entry `Nc1cccc(CN2Cc3cc(Cl)c4c(Cl)c[nH]c4c3NS2(=O)=O)c1` ) reads 1.2 nM

Field EC50 (entry `O=S1(=O)Nc2c(cc(Cl)c3c(Cl)c[nH]c23)CN1Cc1ccc(C(F)F)nc1` ) reads 3.4 nM

Field EC50 (entry `O=S1(=O)Nc2c(cc(Cl)c3c(Cl)c[nH]c23)CN1CCC1COC1` ) reads 2.9 nM

----------
System Name: DCAF15 (DDA1-DDB1ΔB-DCAF15Δpro) (Homo sapiens, UniProt Q66K64, DEL276-383)
Construct: made in house; host or cells: Sf9 (Bac-to-Bac baculovirus)
Assay Text: DCAF15 displacement assay (displacement FRET, probe PT7795)
Assay type: binding
Assay Context: displacement of PT7795 (300 nM), compound 0.01 to 100 μM, 18 hours incubation; read-out: DCAF15 displacement IC50
Measured Parameter: IC50 (nM)
Respond numerically; units are nM and should not be typed.

Here's what some known entries look like.
{"columns": ["Compound", "Unit Info", "IC50"],
 "data": [
  ["Nc1ccc(CN2Cc3cc(Cl)c4c(Cl)c[nH]c4c3NS2(=O)=O)cc1 [Compound 78]", "nM", 1170],
  ["Cn1c(CN2Cc3cc(Cl)c4c(Cl)c[nH]c4c3NS2(=O)=O)cccc1=O [Compound 62]", "nM", 1070],
  ["Cn1cc(CN2Cc3cc(Cl)c4c(Cl)c[nH]c4c3NS2(=O)=O)cn1 [Compound 43]", "nM", 1050]
]}

Item O=S1(=O)Nc2c(cc(Cl)c3c(Cl)c[nH]c23)CN1Cc1ccncc1 [Compound 20] was tested on DCAF15 (DDA1-DDB1ΔB-DCAF15Δpro) (Homo sapiens, UniProt Q66K64, DEL276-383); the reported IC50 is 1070

----------
System Name: DCAF15 (DDA1-DDB1ΔB-DCAF15Δpro) (Homo sapiens, UniProt Q66K64, DEL276-383)
Construct: made in house; host or cells: Sf9 (Bac-to-Bac baculovirus)
Assay Text: DCAF15 displacement assay (displacement FRET, probe PT7795)
Format: binding
Assay Context: displacement of PT7795 (300 nM), compound 0.01 to 100 μM, 18 hours incubation; read-out: DCAF15 displacement IC50
Measured Parameter: log10 of IC50 (log10 of the value in nM)
Please note: log10 values; quantity IC50; unit nM.

Here's what some known entries look like.
{"columns": ["Compound", "System Name", "log10 of IC50"],
 "data": [
  ["O=S1(=O)Nc2c(cc(Cl)c3c(Cl)c[nH]c23)CN1Cc1ccncc1Cl", "DCAF15 (DDA1-DDB1ΔB-DCAF15Δpro) (Homo sapiens, UniProt Q66K64, DEL276-383)", 2.32],
  ["O=S1(=O)Nc2c(cc(Cl)c3c(Cl)c[nH]c23)CN1CCO", "DCAF15 (DDA1-DDB1ΔB-DCAF15Δpro) (Homo sapiens, UniProt Q66K64, DEL276-383)", 3.92],
  ["CS(=O)(=O)CCCN1Cc2cc(Cl)c3c(Cl)c[nH]c3c2NS1(=O)=O", "DCAF15 (DDA1-DDB1ΔB-DCAF15Δpro) (Homo sapiens, UniProt Q66K64, DEL276-383)", 2.83]
]}

Field log10 of IC50 (entry `O=S1(=O)Nc2c(cc(Cl)c3c(Cl)c[nH]c23)CN1Cc1ccncn1` ) reads 2.76

Field log10 of IC50 (entry `CN1Cc2cc(Cl)c3c(Cl)c[nH]c3c2NS1(=O)=O` ) reads 4.16

Field log10 of IC50 (entry `COCCN1Cc2cc(F)c3c(Cl)c[nH]c3c2NS1(=O)=O` ) reads 4.29

Field log10 of IC50 (entry O=S1(=O)Nc2c(cc(Cl)c3c(Cl)c[nH]c23)CC1Cc1ccccc1 (stereo not shown) ) reads 3.08

Field log10 of IC50 (entry `Nc1cccc(CN2Cc3cc(Cl)c4c(Cl)c[nH]c4c3NS2(=O)=O)c1` ) reads 2.76
